Target: mutant MGL (Homo sapiens, UniProt Q99685, L169S/L176S)
Sequence (Q99685 1-303 L169S/L176S): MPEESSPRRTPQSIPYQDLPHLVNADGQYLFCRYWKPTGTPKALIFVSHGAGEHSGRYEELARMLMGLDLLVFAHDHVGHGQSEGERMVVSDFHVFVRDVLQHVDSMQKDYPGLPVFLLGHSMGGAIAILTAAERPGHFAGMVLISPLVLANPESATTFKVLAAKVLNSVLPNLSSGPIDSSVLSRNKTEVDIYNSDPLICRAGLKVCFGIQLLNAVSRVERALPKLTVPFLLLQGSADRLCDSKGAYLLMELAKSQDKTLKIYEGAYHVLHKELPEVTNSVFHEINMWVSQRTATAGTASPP
Experiment: MGL ThermoFluor assay - mutant
Assay type: binding
Conditions: ThermoFluor concentration-response, read-out: MGL mutant ThermoFluor Kd
Please use t for Kd under 0.1 µM and f for everything else, ties included.

Qu. In the record for O=C(c1ccc(-c2ccccc2)cc1)N1CCN(C2CN(C(=O)c3cscn3)C2)CC1 , is Kd less than 0.1 µM?
Ans. t

Qu. In the record for O=C(c1ccc(-n2cnc3ccccc32)cc1)N1CC(N2CCN(C(=O)c3cscn3)CC2)C1 , is Kd less than 0.1 µM?
Ans. f

Qu. In the record for O=C(c1cscn1)N1CC(N2CCN(C(=O)c3cc4cc(Cl)ccc4o3)CC2)C1 , is Kd less than 0.1 µM?
Ans. f

Qu. In the record for O=C(c1ccccc1)N1CCN(C2CN(C(=O)c3ccc(-n4ccc(C(F)(F)F)n4)cc3)C2)CC1 , is Kd less than 0.1 µM?
Ans. f

Qu. In the record for Cn1nc(-c2ccccc2)c2cc(C(=O)N3CC(N4CCN(C(=O)c5nccs5)CC4)C3)ccc21 , is Kd less than 0.1 µM?
Ans. t

Qu. In the record for O=C(c1ccccc1)N1CCN(C2CN(C(=O)c3ccc(F)cc3)C2)CC1 , is Kd less than 0.1 µM?
Ans. f

Qu. In the record for O=C(c1ccc(-n2ccc(C(F)(F)F)n2)cc1)N1CC(N2CCN(C(=O)c3nccs3)CC2)C1 , is Kd less than 0.1 µM?
Ans. f

Qu. In the record for O=C(c1ccccc1)N1CCN(C2CN(C(=O)c3cccc(-n4cccc4)c3)C2)CC1 , is Kd less than 0.1 µM?
Ans. f

Qu. In the record for N#Cc1cccc(-c2ccc(C(=O)N3CC(N4CCN(C(=O)c5ccccc5)CC4)C3)cc2)c1 , is Kd less than 0.1 µM?
Ans. f

Qu. In the record for O=C(c1ccccc1)N1CCN(C2CN(C(=O)c3cccnc3Oc3ccccc3)C2)CC1 , is Kd less than 0.1 µM?
Ans. f

Qu. In the record for O=C(c1ccccc1)N1CCN(C2CN(C(=O)c3ccc(Sc4cccc(Cl)c4)cc3)C2)CC1 , is Kd less than 0.1 µM?
Ans. t

Qu. In the record for O=C(c1ccc(N2CCCC2)cc1)N1CC(N2CCN(C(=O)c3nccs3)CC2)C1 , is Kd less than 0.1 µM?
Ans. t

Qu. In the record for COc1cccc2c(C)c(C(=O)N3CCN(C4CN(C(=O)c5cscn5)C4)CC3)[nH]c12 , is Kd less than 0.1 µM?
Ans. f

Qu. In the record for O=C(c1ccccc1)N1CCN(C2CN(C(=O)c3ccc(Oc4ccc(Cl)cc4)cc3)C2)CC1 , is Kd less than 0.1 µM?
Ans. f

Qu. In the record for O=C(c1ccccc1)N1CCN(C2CN(C(=O)c3ccc4c(ccn4-c4ccc(Cl)cn4)c3)C2)CC1 , is Kd less than 0.1 µM?
Ans. f

Qu. In the record for O=C(c1cccc(-c2ccc(F)cc2F)c1)N1CC(N2CCN(C(=O)c3nccs3)CC2)C1 , is Kd less than 0.1 µM?
Ans. f
